Test system: SFV-Rluc
Conditions: primary screening of chemical libraries; compounds tested at 50 µM
PROPERTY_LABEL: SFV replication % left (%)

{"COMPOUND": "CN1C(=O)CN=C(c2ccccc2)c2cc(Cl)ccc21", "TESTED_TARGET": "SFV-Rluc", "UNITS_TEXT": "%", "VALUE": 73.6}
{"COMPOUND": "COc1ccc2c(c1OC)C(=O)O[C@@H]2[C@H]1c2c(cc3c(c2OC)OCO3)CCN1C", "TESTED_TARGET": "SFV-Rluc", "UNITS_TEXT": "%", "VALUE": 103.5}
{"COMPOUND": "CCOC(=O)c1ccc(N)cc1", "TESTED_TARGET": "SFV-Rluc", "UNITS_TEXT": "%", "VALUE": 43.4}
{"COMPOUND": "O=C1Nc2ccc(Cl)cc2C(c2ccccc2)=NC1O (stereo not shown)", "TESTED_TARGET": "SFV-Rluc", "UNITS_TEXT": "%", "VALUE": 79.1}
{"COMPOUND": "COc1c2ccoc2cc2oc(=O)ccc12", "TESTED_TARGET": "SFV-Rluc", "UNITS_TEXT": "%", "VALUE": 46.8}
{"COMPOUND": "O=S(=O)(O)NC1CCCCC1", "TESTED_TARGET": "SFV-Rluc", "UNITS_TEXT": "%", "VALUE": 74.9}
{"COMPOUND": "O=C(O)/C=C\\C(=O)O.O=C(O)/C=C\\C(=O)O.OCCN1CCN(CCCN2c3ccccc3Sc3ccc(C(F)(F)F)cc32)CC1", "TESTED_TARGET": "SFV-Rluc", "UNITS_TEXT": "%", "VALUE": 98.9}
{"COMPOUND": "O=c1cc(O)c2ccccc2o1", "TESTED_TARGET": "SFV-Rluc", "UNITS_TEXT": "%", "VALUE": 100.2}
{"COMPOUND": "Cc1cccc(Nc2ccccc2C(=O)O)c1C", "TESTED_TARGET": "SFV-Rluc", "UNITS_TEXT": "%", "VALUE": 103.5}
{"COMPOUND": "O=C(O)Cc1cccc(O)c1", "TESTED_TARGET": "SFV-Rluc", "UNITS_TEXT": "%", "VALUE": 110.8}

----------
Tested on: SFV-Rluc
Counter-ions that a name gives are not always drawn.
SFV replication % left (surviving fraction, remaining percentage of SFV replication) strictly less than 80% = MET. Otherwise NOT MET.

{"COMPOUND": "COc1ccc2c(c1OC)C(=O)O[C@@H]2[C@H]1c2c(cc3c(c2OC)OCO3)CCN1C [Noscapine]", "TESTED_TARGET": "SFV-Rluc", "CLASS_ASSIGNMENT": "NOT MET"}
{"COMPOUND": "O=c1cc(O)c2ccccc2o1 [4-Hydroxycoumarin]", "TESTED_TARGET": "SFV-Rluc", "CLASS_ASSIGNMENT": "NOT MET"}
{"COMPOUND": "Cl.c1ccc(CC2=NCCN2)cc1 [Tolazoline, hydrochloride]", "TESTED_TARGET": "SFV-Rluc", "CLASS_ASSIGNMENT": "MET"}
{"COMPOUND": "CC(C)(C)NCC(O)c1ccc(O)c(CO)c1.CC(C)(C)NCC(O)c1ccc(O)c(CO)c1.O=S(=O)(O)O (centres unmarked) [PC-185]", "TESTED_TARGET": "SFV-Rluc", "CLASS_ASSIGNMENT": "NOT MET"}
{"COMPOUND": "CCCCNc1ccc(C(=O)OCCN(C)C)cc1 [Tetracaine hydrochloride]", "TESTED_TARGET": "SFV-Rluc", "CLASS_ASSIGNMENT": "NOT MET"}
{"COMPOUND": "Nc1ccc(S(=O)(=O)Nc2nccs2)cc1 [Sulfathiazole]", "TESTED_TARGET": "SFV-Rluc", "CLASS_ASSIGNMENT": "NOT MET"}
{"COMPOUND": "CN1CCN(CCCN2c3ccccc3Sc3ccc(Cl)cc32)CC1 [Prochlorperazine]", "TESTED_TARGET": "SFV-Rluc", "CLASS_ASSIGNMENT": "MET"}
{"COMPOUND": "CCCC(C)C1(CC)C(=O)NC(=O)NC1=O (centres unmarked) [Pentobarbital]", "TESTED_TARGET": "SFV-Rluc", "CLASS_ASSIGNMENT": "MET"}
{"COMPOUND": "Cc1ncc([N+](=O)[O-])n1CCO [Metronidazole]", "TESTED_TARGET": "SFV-Rluc", "CLASS_ASSIGNMENT": "MET"}
{"COMPOUND": "CC(C(=O)O)c1cccc(C(=O)O)c1 (centres unmarked) [2-(3-Carboxyphenyl)propionic acid]", "TESTED_TARGET": "SFV-Rluc", "CLASS_ASSIGNMENT": "NOT MET"}
{"COMPOUND": "Oc1cc(O)c2c(c1)OC(c1ccc(O)c(O)c1)C(O)C2O (centres unmarked) [Leucocyanidin]", "TESTED_TARGET": "SFV-Rluc", "CLASS_ASSIGNMENT": "NOT MET"}
{"COMPOUND": "COc1cc(C(=O)O)cc(OC)c1O [Syringic acid]", "TESTED_TARGET": "SFV-Rluc", "CLASS_ASSIGNMENT": "MET"}

----------
Parameter 'readout' = SFV replication % left (surviving fraction, remaining percentage of SFV replication); parameter 'system' = SFV-Rluc.
PROPERTY_LABEL: SFV replication % left (surviving fraction, remaining percentage of SFV replication) (%)

{"MOLECULE": "CCN(CC)c1ccc2cc(-c3nc4ccccc4n3C)c(=O)oc2c1", "UNITS_TEXT": "%", "VALUE": 12.3}
{"MOLECULE": "OCc1ccccc1O[C@@H]1O[C@H](CO)[C@@H](O)[C@H](O)[C@H]1O [D(-)-Salicin]", "UNITS_TEXT": "%", "VALUE": 104.4}
{"MOLECULE": "O=C(O)Cc1ccc(O)cc1 [4-Hydroxyphenylacetic acid]", "UNITS_TEXT": "%", "VALUE": 103.6}
{"MOLECULE": "Cc1nnc(NS(=O)(=O)c2ccc(N)cc2)s1 [PC-203]", "UNITS_TEXT": "%", "VALUE": 89.6}

----------
Tested on: SFV-Rluc
Conditions: primary screening of chemical libraries; compounds tested at 50 µM
The entries below are paired with their reported SFV replication % left.

{"STRUCTURE_AS_SMILES": "NC(=O)N1c2ccccc2C=Cc2ccccc21", "TESTED_TARGET": "SFV-Rluc", "SFV replication % left / %": 57.2}
{"STRUCTURE_AS_SMILES": "O=C(N[C@H](CO)[C@H](O)c1ccc([N+](=O)[O-])cc1)C(Cl)Cl", "TESTED_TARGET": "SFV-Rluc", "SFV replication % left / %": 73.8}
{"STRUCTURE_AS_SMILES": "COc1ccc([C@@H]2CC(=O)c3c(O)cc(O[C@@H]4O[C@H](CO[C@@H]5O[C@@H](C)[C@H](O)[C@@H](O)[C@H]5O)[C@@H](O)[C@H](O)[C@H]4O)cc3O2)cc1O", "TESTED_TARGET": "SFV-Rluc", "SFV replication % left / %": 77.7}

----------
Tested on: SFV-Rluc
Where a name gives a salt, the structure may show the parent alone.
// class assignment uses SFV replication % left (surviving fraction, remaining percentage of SFV replication) with these ranges: lowest (below 50%), middle (50% to below 90%), highest (90% or more)

{"COMPOUND": "CCOc1ccc2c(c1)C(C)=CC(C)(C)N2", "CLASS_ASSIGNMENT": "highest"}
{"COMPOUND": "CC(C)(C)NCC(O)c1ccc(O)c(CO)c1 (stereo not drawn)", "CLASS_ASSIGNMENT": "highest"}
{"COMPOUND": "Nc1nc(N)c2nc(-c3ccccc3)c(N)nc2n1", "CLASS_ASSIGNMENT": "highest"}
{"COMPOUND": "COc1ccc2c(C)cc(=O)oc2c1", "CLASS_ASSIGNMENT": "middle"}
{"COMPOUND": "Cc1cccc(C)c1NC(=O)C1CCCCN1C (stereo not drawn) [Mepivacaine hydrochloride]", "CLASS_ASSIGNMENT": "middle"}
{"COMPOUND": "Cc1ccc(C(C)C)c(O)c1", "CLASS_ASSIGNMENT": "lowest"}
{"COMPOUND": "COc1ccc2ccc(=O)oc2c1", "CLASS_ASSIGNMENT": "middle"}
{"COMPOUND": "c1ccc(CN(CC2=NCCN2)c2ccccc2)cc1 [Antazoline hydrochloride]", "CLASS_ASSIGNMENT": "lowest"}
{"COMPOUND": "O.O.O.O=c1ccc2cc(O[C@@H]3O[C@H](CO)[C@@H](O)[C@H](O)[C@H]3O)c(O)cc2o1.O=c1ccc2cc(O[C@@H]3O[C@H](CO)[C@@H](O)[C@H](O)[C@H]3O)c(O)cc2o1 [Esculin sesquihydrate]", "CLASS_ASSIGNMENT": "highest"}
{"COMPOUND": "NC(=O)N/N=C/c1ccc([N+](=O)[O-])o1", "CLASS_ASSIGNMENT": "middle"}
{"COMPOUND": "Cn1cnc2c1c(=O)[nH]c(=O)n2C", "CLASS_ASSIGNMENT": "highest"}
{"COMPOUND": "CN(C)CC[C@@H](c1ccc(Cl)cc1)c1ccccn1 [Dexchlorpheniramine maleate]", "CLASS_ASSIGNMENT": "middle"}
{"COMPOUND": "CC(=O)N(c1onc(C)c1C)S(=O)(=O)c1ccc(N)cc1", "CLASS_ASSIGNMENT": "lowest"}
{"COMPOUND": "CCCNc1ccc(C(=O)OCC(O)CN(C)C)cc1 (stereo not drawn)", "CLASS_ASSIGNMENT": "middle"}

Recorded values, source paper PMC3242765.
